# Assay Protocol: Stability of S-nitrosothiols (NAT conversion from DAN)
Measured Metric: half-life at 200 μM

Noted for N[C@@H](CSN=O)C(=O)O [SNOC, S-nitrosocysteine] : its half-life at 200 μM reads < 10 min

Origin of measurements: patent US20090209615A1
